- TEST_SYSTEM: T1, GST-hUHRF1-TTD (126-280) E153Q (human, UniProt Q96T88 126-280, E153Q)
- T1 construct: Tandem Tudor domain (TTD) of human UHRF1, UniProt Q96T88, residues 126-280; source: E. coli, purified (Glutathione Agarose 4B); not shown: GST, N-terminal, kept
- T1 sequence (looked up): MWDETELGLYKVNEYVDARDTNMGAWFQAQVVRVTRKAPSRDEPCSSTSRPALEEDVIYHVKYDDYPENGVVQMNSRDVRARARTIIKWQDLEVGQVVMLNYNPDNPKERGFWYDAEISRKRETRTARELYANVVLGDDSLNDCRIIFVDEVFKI
- EXPERIMENT_DESCRIPTION: fluorescence polarisation; fluorescence anisotropy titration; 100 nM FITC-labeled peptide in the cuvette, protein added stepwise; 23°C; 100 mM KCl, 20 mM HEPES pH 7.5, 10% v/v glycerol
- PROTOCOL_CONDITIONS: both partners purified
No end group written: not given here. Me3 = trimethyl (trimethyl-lysine)
MEASURED_PARAMETER: Kd

Which measured Kd value corresponds to ARTK(Me)QTARK(Me3)STGGKAPRKQ (peptide, UniProt P68431 2-20, looked up, also: FITC-labeled (position not given here), histone H3 N-terminal tail, residues 1-19; also called H3K4me1-K9me3; H3 K4me1-K9me3) [FITC-labeled H3(1-19) peptide with K4me1 and K9me3] ?
250 nM
